Ref: PubChem BioAssay (NCI)

Tested on: CAKI-1 renal
Test: NCI-60 one-dose screen, 48 h (100 = growth as untreated, 0 = no growth, -100 = all killed)
Conditions: 10 µM
Compounds without any hit were thinned out: in the full panel of roughly 83,000, 20% have a hit.
Give growth for every item shown.
Enter your answer as a number in %; do not include the unit.

Task item: Give the reported value of growth for this record: `COc1cc2c3c(n([C@@H]4CCOC4)c(=O)c2cc1OC)-c1cc2c(cc1C3=O)OCO2`
Reply: 23.2

Task item: Give the reported value of growth for this record: `COc1cc2cc(Oc3ccc(NC(=O)Nc4ccc(Cl)c(Cl)c4)cc3)c(C)nc2cc1OC`
Reply: 21.7

Task item: Give the reported value of growth for this record: `CC(=O)N[C@H](C(=O)N[C@@H](CCCNC(=N)N)C(=O)N[C@@H](CCCCN)C(=O)N[C@@H](CCCNC(=N)N)C(=O)N[C@]1(C)CCCCCC/C=C\CCC[C@@](C)(C(=O)N[C@@H](CCCNC(=N)N)C(=O)N[C@@H](CCC(=O)O)C(=O)N[C@@H](CC(C)C)C(=O)N[C@H](C(=O)N[C@@H](CCC(=O)O)C(N)=O)C(C)C)NC(=O)[C@H](CCC(N)=O)NC(=O)[C@H](CC(C)C)NC(=O)[C@H](CC(C)C)NC(=O)[C@H](CCCNC(=N)N)NC(=O)[C@H](CCCNC(=N)N)NC(=O)[C@H](CC(C)C)NC1=O)C(C)C`
Reply: 16.1

Task item: Give the reported value of growth for this record: CC(C)=CCC/C(C)=C/CC/C(C)=C/CC/C=C(\C)CC/C=C(\C)CCC(=O)Nc1ccn(C2OC(CO)C(O)C2(F)F)c(=O)n1 (configuration not stated)
Reply: -20.9

Task item: Give the reported value of growth for this record: `O=C(O)Cc1ccc(O)c(O)c1`
Reply: 99.5

Task item: Give the reported value of growth for this record: CC1CCCC(C(=O)O)C1C(=O)O (configuration not stated)
Reply: 97.2

Task item: Give the reported value of growth for this record: `CCc1ccc(C2=NN(c3ccc(S(C)(=O)=O)cc3)C(=O)CC2)cc1`
Reply: 16.7
